Tested on: NCI/ADR-RES
Test: NCI tumour cell line growth inhibition, 48 h
Calls of active or inactive are those of the source. Rule as the data show it: active = GI50 up to about 1.1 µM and inactive = higher.
Outcomes you can answer with include only these: t = active, f = inactive

Record lookup: outcome of this test for Clc1ccccc1-c1nc(-c2ccncc2)no1 [PIFEXOLE] ?
f

Record lookup: outcome of this test for CC(C)C(=O)CC(Sc1ccc(N)cc1)c1ccccc1 (stereo not given) ?
f

---
Record lookup: outcome of this test for `COc1cc([C@@H]2c3cc4c(cc3[C@@H](NCCNCCO)[C@H]3COC(=O)[C@H]23)OCO4)cc(OC)c1O` ?
f

Record lookup: outcome of this test for CC(=O)NC(CSC1=C2NC(=O)\C=C/C=C\C=C/C(C)C(O)CC(=O)/C(C)=C\CC(O)/C=C\C(C)C(O)C(C)C=C(C)C(=O)c3c(O)c(C)cc(c3C1=O)C2=O)C(=O)O (stereo not given) ?
f

Record lookup: outcome of this test for CN1C(=O)c2c(c3c4ccccc4n(C4OC(CO)C(O)C(O)C4O)c3c3[nH]c4ccccc4c23)C1=O (stereo not given) ?
f

====

Tested on: NCI-H23
Test: NCI tumour cell line growth inhibition, 48 h
Calls of active or inactive are those of the source. No stated cut-off is given here; in the data, active = GI50 up to about 1.1 µM and inactive = higher.
Outcomes you can answer with include only these: true (1) for active, false (0) for inactive

Take a look at these entries with their results.
Record lookup: outcome of this test for `O=CCCCC(Sc1ccccc1)Sc1ccccc1` ?
false (0)

Record lookup: outcome of this test for `Cc1c(C(=O)/C=C/c2ccc(Cl)cc2)[n+]([O-])c2ccccc2[n+]1[O-]` ?
false (0)

Record lookup: outcome of this test for COc1cc([C@@H]2c3cc4c(cc3[C@@H](NC(=O)c3ccc([N+](=O)[O-])cc3)C3COC(=O)[C@@H]32)OCO4)cc(OC)c1O (stereo not given in full) ?
true (1)

Record lookup: outcome of this test for N#CC12CC=C(c3ccccc3)N=C1NC(c1ccccc1)=CC2 (stereo not given) ?
false (0)

Record lookup: outcome of this test for `O=c1c(/C=C/c2c(O)ccc3ccccc23)nnc2sc(-c3cccc([N+](=O)[O-])c3)nn12` ?
false (0)

Record lookup: outcome of this test for `O=C(O)CCSc1nnc(COc2ccc(Cl)cc2)n1-c1ccccc1` ?
false (0)

Record lookup: outcome of this test for `CN(C)C(=S)N/N=C(\C(=N/NC(=S)N(C)C)c1ccccn1)c1ccccn1` ?
false (0)

Record lookup: outcome of this test for O=S(=O)(/N=S(/Nc1ccccc1)C(Cl)Cl)c1ccccc1 (stereo not given) ?
false (0)

---
Record lookup: outcome of this test for Clc1ccccc1-c1nc(-c2ccncc2)no1 [PIFEXOLE] ?
false (0)

Record lookup: outcome of this test for `CN(C)C(=N/O)/C(=N\O)N(C)C` ?
false (0)

====

// GI50 collected for HCT-15

Check out these entries, answers already filled in.
// Input: `C[C@@]12C[C@@H](c3ccccc3O1)N1CCCSC1=N2` . Output its GI50 only.
> 100 µM

// Input: `CCN(CC)CCn1c(=O)c2c(C)c3oc4ccccc4oc3c(C)c2c1=O` . Output its GI50 only.
> 100 µM

// Input: `COC(c1ccc(C(C)(C)C)cc1)(c1ccc(C(C)(C)C)cc1)c1ccc(C(C)(C)C)cc1` . Output its GI50 only.
> 100 µM

// Input: `CC1=C(C(=O)CC(=O)C(=O)Nc2ccccc2C)Sc2ccccc2N1` . Output its GI50 only.
> 100 µM

Field: next compound
// Input: `O=C1Nc2cc([N+](=O)[O-])ccc2N/C1=C/C(=O)c1ccc(Cl)cc1` . Output its GI50 only.
12.6 µM

====

Tested on: HCT-116
Test: NCI tumour cell line growth inhibition, 48 h
Calls of active or inactive are those of the source. No stated cut-off is given here; in the data, active = GI50 up to about 1.1 µM and inactive = higher.
Outcomes you can answer with include only these: 1 (active), -1 (inactive)

Take a look at these entries with their results.
Record lookup: outcome of this test for COc1ccccc1C12OC(=O)C1(C)Oc1ccccc1C2=O (configuration not stated) ?
-1

Record lookup: outcome of this test for `COc1cc(C/N=c2/nc(N(C)C)ss2)cc(OC)c1OC` ?
-1

Record lookup: outcome of this test for `CSCCCNC(=O)c1csc(-c2csc(CCNC(=O)CNC(=O)CNC(=O)OC(C)(C)C)n2)n1` ?
-1

---
Record lookup: outcome of this test for `CN(CC(=O)O)c1ncc2c(n1)-c1ccccc1CC2` ?
-1

Record lookup: outcome of this test for COc1ccc(N2NC(c3ccccc3)(c3ccccc3)C(C)C2=O)cc1 (configuration not stated) ?
-1

Record lookup: outcome of this test for CC1=C(/C=C/C(C)=C/C=C/C(C)=C/C=C/C=C(C)/C=C/C=C(C)/C=C/C2=C(C)C(=O)C(O)CC2(C)C)C(C)(C)CC(O)C1=O (configuration not stated) ?
-1

====

Test system: SNB-75
Test: NCI tumour cell line growth inhibition, 48 h
Calls of active or inactive are those of the source. No stated cut-off is given here; in the data, active = GI50 up to about 1.1 µM and inactive = higher.
measured.endpoint: GI50

// Input: CCC(=O)OC1CCn2c1nc1c2C(=O)C(C)=C(N2CC2)C1=O (centres undefined) . Output its GI50 only.
30.1 nM (active)

// Input: COC1CCC(OC2CC(C3(C)CCC4(CC(O)C(C)C(C(C)/C=C(\C)C(=O)C(C)CC(C)C(=O)O)O4)O3)OC3(OC(C4OC(O)(CO)C(C)CC4C)CC3C)C2C)OC1C (centres undefined) . Output its GI50 only.
22 nM (active)

// Input: CSc1ncnc2c1ncn2CC(=O)C1CCC2C3CCC4=CC(=O)CCC4(C)C3CCC12C (centres undefined) . Output its GI50 only.
5190 nM (inactive)

Field: next compound
// Input: `CCO/C([O-])=C(\C(=O)c1ccc([N+](=O)[O-])cc1)[n+]1c(C)n(C)c2ccccc21` . Output its GI50 only.
> 100000 nM (inactive)

====

So I've got a bunch of compounds here, and I need their GI50 values.
System: A498
Test: NCI tumour cell line growth inhibition, 48 h
The source made the active and inactive calls. Rule as the data show it: active = GI50 up to about 1.1 µM and inactive = higher.

// Input: `COc1cccc2cc(C(=O)Nc3ccccn3)c(=N)oc12` . Output its GI50 only.
> 100 µM (inactive)

Give me GI50 for each of these compounds, listed below.
1. O=C(NNC(=O)c1ccccc1O)c1ccco1
2. COC(C)(C)/C=C/c1[nH]c2ccccc2c1CC(=O)NCCc1cn(C(c2ccccc2)(c2ccccc2)c2ccccc2)cn1
3. CCC(=O)Nc1cccc(/N=C/c2ccc(OC(=O)/C=C\c3ccccc3)cc2)c1
4. COc1ccc(/C=C\c2cc(OC)c(OC)c(OC)c2)cc1

> 100 µM (inactive)
3.25 µM (inactive)
> 75 µM (inactive)
< 0.01 µM (active)

// Input: `Cc1nc2ccccc2c(=O)[nH]1` . Output its GI50 only.
> 100 µM (inactive)

====

Test system: HCT-116
Assay: NCI tumour cell line growth inhibition, 48 h
Activity calls are given as the source filed them. Rule as the data show it: active = GI50 up to about 1.1 µM and inactive = higher.
Outcomes you can answer with include only these: TRUE (active), FALSE (inactive)

Record lookup: outcome of this test for `COc1ccc(OC)c(C[P+](c2ccccc2)(c2ccccc2)c2ccccc2)c1` ?
TRUE

Record lookup: outcome of this test for `NNS(=O)(=O)c1ccc(/C=C2\NC(=O)NC2=O)cc1` ?
FALSE

Record lookup: outcome of this test for `O=c1nc(NC(c2ccccc2)(c2ccccc2)c2ccccc2)ccn1CCNCCn1ccc(NC(c2ccccc2)(c2ccccc2)c2ccccc2)nc1=O` ?
FALSE

====

Tested on: SNB-75
Assay: NCI tumour cell line growth inhibition, 48 h
Calls of active or inactive are those of the source. Rule as the data show it: active = GI50 up to about 1.1 µM and inactive = higher.
measured.endpoint: GI50

Check out these entries, answers already filled in.
// Input: `C[Si](C)(C)C1=C([Si](C)(C)C)C(Cl)(Cl)C1=O` . Output its GI50 only.
8.77 µM (inactive)

// Input: `Cc1c(C(=O)/C=C/c2ccc(Cl)cc2)[n+]([O-])c2ccccc2[n+]1[O-]` . Output its GI50 only.
15.3 µM (inactive)

// Input: `Brc1ccc2[nH]cc(-c3csc(-c4c[nH]c5ccc(Br)cc45)n3)c2c1` . Output its GI50 only.
2.39 µM (inactive)

// Input: O=S(=O)(/N=S(/Nc1ccccc1)C(Cl)Cl)c1ccccc1 (stereo not given) . Output its GI50 only.
> 100 µM (inactive)

// Input: `CN(C)c1n/c(=N/Cc2ccco2)ss1` . Output its GI50 only.
20.5 µM (inactive)

Give me GI50 for each of these compounds, listed below.
1. Cc1ccc(/N=N\c2c(O)ccc3cc(S(=O)(=O)O)ccc23)cc1
2. CSc1ccc(C=C2N=C(c3ccccc3)N(c3cc(C(=O)c4ccccc4)ccc3N3C(=O)/C(=C/c4ccc(SC)cc4)N=C3c3ccccc3)C2=O)cc1
3. Cc1nc2ccccc2c(=O)n1-c1ccccc1I

["> 100 µM (inactive)", "16 µM (inactive)", "46.2 µM (inactive)"]

Give me GI50 for each of these compounds, listed below.
1. COc1cc(C/N=c2/nc(N(C)C)ss2)cc(OC)c1OC
2. CCOC(=O)/N=c1\ss/c(=N\C(=S)N(C)C)n1-c1ccccc1

1. > 10 µM (inactive)
2. 6.03 µM (inactive)

Numbers sourced from ChEMBL document CHEMBL1201862.
